Every entry's value here was drawn from a melting point compilation (Tetko et al.).

readoutName: melting point

Previously resolved entries follow.
compound	observedMeasurement
C=C1C2CC(C(=C(c3ccccc3)c3ccccc3)C2c2ccccc2)C1(C)C (configuration not stated)	115 °C
O=C1c2c(O)cccc2C(C2OC(CO)C(O)C(O)C2O)c2cc(CO)cc(O)c21 (configuration not stated)	148 °C
Fc1cc(Br)ccc1I	48 °C

Now for the compound whose melting point we want.
*Q* Can you look up the measured melting point of BrCC(Br)C1CCC(Br)C(Br)C1 (configuration not stated) for me?
*A* 70 °C

----------
Is melting point at least 40 °C? Then True. If not, False.

compound	classLabel
N#Cc1c(C2CCCCC2)[nH]c(=S)[nH]c1=O	True
CC1CCC(C(C)C)C(OC(=O)c2ccc3ccccc3c2)C1 (stereo unspecified)	True
CC1CCC(C(C)C)C(OC(=O)C(C(=O)c2ccccc2)C(=O)c2ccccc2)C1 (stereo unspecified)	True
CCCN(CCC)c1c([N+](=O)[O-])cc(C(F)(F)F)cc1[N+](=O)[O-]	True
C=CC(Cl)(Cl)Cl	False

*Q* Decide: is the reported value of melting point for O=C1CC2CCCCC2C1 (stereo unspecified) equal to or greater than 40 °C?
*A* False

*Q* Decide: is the reported value of melting point for Nc1c(F)cc(F)cc1F equal to or greater than 40 °C?
*A* False

*Q* Decide: is the reported value of melting point for O=C(Oc1cccc(N=[N+]([O-])c2cccc(OC(=O)c3ccccc3)c2)c1)c1ccccc1 equal to or greater than 40 °C?
*A* True

*Q* Decide: is the reported value of melting point for CCC(C)(C)c1ccc(O)c(C(C)(C)CC)c1 equal to or greater than 40 °C?
*A* False

----------
Each entry below lists one item and its recorded melting point value.
Report as a plain number; the unit °C is understood.

molecule	unitsLabel	observedMeasurement
COc1ccc(C=O)c(OC)c1OC	°C	40
C1CCN(SSN2CCCCC2)CC1	°C	64.2
N[C@@H]1CCc2ccccc21	°C	15
COC(C)=O	°C	-98
CCOC(=O)c1c[nH]c(=O)nc1C(F)(F)F	°C	165

*Q* Can you look up the measured melting point of O=C1CCCC2Cc3ccccc3C(=O)C12 (stereo not drawn) for me?
*A* 79

*Q* Can you look up the measured melting point of O=C(C=Cc1ccccc1)C=Cc1ccccc1 for me?
*A* 111

*Q* Can you look up the measured melting point of CCCCCCCCCCCCCCCCCCc1ccccc1 for me?
*A* 29

*Q* Can you look up the measured melting point of CCCCCCCCCCCCCC(=O)Oc1ccc(N=Cc2ccc(N(C)C)cc2)cc1 for me?
*A* 106

*Q* Can you look up the measured melting point of Cc1nc(C(C)(C)C)sc1C(=O)O for me?
*A* 156

*Q* Can you look up the measured melting point of O=C1CCCC1C1CCCC1 (stereo not drawn) for me?
*A* -13

*Q* Can you look up the measured melting point of N[C@H](C(=O)O)c1ccc(F)cc1 for me?
*A* 300

*Q* Can you look up the measured melting point of O=C1CCC2(c3ccccc3)OCC(c3ccccc3)N12 (stereo not drawn) for me?
*A* 78

*Q* Can you look up the measured melting point of OCc1ccccc1-c1ccco1 for me?
*A* 72

*Q* Can you look up the measured melting point of CC(C)c1ccccc1Br for me?
*A* -59

*Q* Can you look up the measured melting point of CC(C)(C)C(=O)C1C(=O)c2ccccc2C1=O for me?
*A* 109

*Q* Can you look up the measured melting point of CC(=O)CC(c1ccc(Cl)cc1)c1c(O)c2ccccc2oc1=O (stereo not drawn) for me?
*A* 170

*Q* Can you look up the measured melting point of CCCCCCc1ccc(C(=O)Oc2ccc(C#N)cc2)cc1 for me?
*A* 46
